- PROCEDURE_TEXT: Wet heat resistance stability test of filter (85° C., 85% RH, 3 days)
- Assay type: physicochemical
- APPLIED_CONDITIONS: acryl resin filter, 85° C. and 85% RH for 3 days
RECORDED_METRIC: Absorbance (OD value) After 3 days

Exam item: Recorded Absorbance (OD value) After 3 days for COCCN1/C(=C/C=C2\CCCC(/C=C/C3=[N+](CCOC)c4ccc5ccccc5c4C3(C)C)=C2Cl)C(C)(C)c2c1ccc1ccccc21 , please?
Marked response: 0.59

Exam item: Recorded Absorbance (OD value) After 3 days for CN1/C(=C/C=C2\CCCC(/C=C/C3=[N+](C)c4ccc5ccccc5c4C3(C)C)=C2Cl)C(C)(C)c2c1ccc1ccccc21 , please?
Marked response: 0.63

Exam item: Recorded Absorbance (OD value) After 3 days for COCCN1/C(=C/C=C2\CCCC(/C=C/C3=[N+](CCOC)c4ccccc4C3(C)C)=C2Cl)C(C)(C)c2ccccc21 , please?
Marked response: 0.82

Exam item: Recorded Absorbance (OD value) After 3 days for COCCN1/C(=C/C=C/C=C/C=C/C2=[N+](CCOC)c3ccccc3C2(C)C)C(C)(C)c2ccccc21 , please?
Marked response: 0.80

Exam item: Recorded Absorbance (OD value) After 3 days for CN1/C(=C/C=C/C=C/C=C/C2=[N+](C)c3ccc4ccccc4c3C2(C)C)C(C)(C)c2c1ccc1ccccc21 , please?
Marked response: 0.67

====

- PROCEDURE_TEXT: Wet heat resistance stability test of filter (85° C., 85% RH, 3 days)
- Format: physicochemical
- APPLIED_CONDITIONS: absorbance after/before ×100; 85° C. and 85% RH, 3 days
RECORDED_METRIC: Residual Ratio (%)

Exam item: Recorded Residual Ratio for CN1/C(=C/C=C/C=C/C=C/C2=[N+](C)c3ccc4ccccc4c3C2(C)C)C(C)(C)c2c1ccc1ccccc21 , please?
Marked response: 89.7

Exam item: Recorded Residual Ratio for COCCN1/C(=C/C=C2\CCCC(/C=C/C3=[N+](CCOC)c4ccc5ccccc5c4C3(C)C)=C2Cl)C(C)(C)c2c1ccc1ccccc21 , please?
Marked response: 90.9

Exam item: Recorded Residual Ratio for COCCN1/C(=C/C=C2\CCCC(/C=C/C3=[N+](CCOC)c4ccccc4C3(C)C)=C2Cl)C(C)(C)c2ccccc21 , please?
Marked response: 99.9

Exam item: Recorded Residual Ratio for COCCN1/C(=C/C=C/C=C/C=C/C2=[N+](CCOC)c3ccccc3C2(C)C)C(C)(C)c2ccccc21 , please?
Marked response: 97.3

Exam item: Recorded Residual Ratio for CN1/C(=C/C=C2\CCCC(/C=C/C3=[N+](C)c4ccc5ccccc5c4C3(C)C)=C2Cl)C(C)(C)c2c1ccc1ccccc21 , please?
Marked response: 93.6

====

- PROCEDURE_TEXT: Wet heat resistance stability test of filter (85° C., 85% RH, 3 days)
- Type: physicochemical
- APPLIED_CONDITIONS: acryl resin filter, before 85° C./85% RH test
RECORDED_METRIC: Absorbance (OD value) Initial

Exam item: Recorded Absorbance (OD value) Initial for COCCN1/C(=C/C=C/C=C/C=C/C2=[N+](CCOC)c3ccccc3C2(C)C)C(C)(C)c2ccccc21 , please?
Marked response: 0.83

Exam item: Recorded Absorbance (OD value) Initial for CN1/C(=C/C=C2\CCCC(/C=C/C3=[N+](C)c4ccc5ccccc5c4C3(C)C)=C2Cl)C(C)(C)c2c1ccc1ccccc21 , please?
Marked response: 0.67

Exam item: Recorded Absorbance (OD value) Initial for CN1/C(=C/C=C/C=C/C=C/C2=[N+](C)c3ccc4ccccc4c3C2(C)C)C(C)(C)c2c1ccc1ccccc21 , please?
Marked response: 0.75

Exam item: Recorded Absorbance (OD value) Initial for COCCN1/C(=C/C=C2\CCCC(/C=C/C3=[N+](CCOC)c4ccc5ccccc5c4C3(C)C)=C2Cl)C(C)(C)c2c1ccc1ccccc21 , please?
Marked response: 0.65

Exam item: Recorded Absorbance (OD value) Initial for COCCN1/C(=C/C=C2\CCCC(/C=C/C3=[N+](CCOC)c4ccccc4C3(C)C)=C2Cl)C(C)(C)c2ccccc21 , please?
Marked response: 0.83
